Cited source: patent US20200317817A1

Consider the following binders and their measured IC50, inhibition of PTHrP(1-34)-induced cAMP accumulation readings.
target-desc: T1, human PTH1R overexpressed on CHO cells (human, UniProt Q03431 27-593)
T1 sequence (looked up): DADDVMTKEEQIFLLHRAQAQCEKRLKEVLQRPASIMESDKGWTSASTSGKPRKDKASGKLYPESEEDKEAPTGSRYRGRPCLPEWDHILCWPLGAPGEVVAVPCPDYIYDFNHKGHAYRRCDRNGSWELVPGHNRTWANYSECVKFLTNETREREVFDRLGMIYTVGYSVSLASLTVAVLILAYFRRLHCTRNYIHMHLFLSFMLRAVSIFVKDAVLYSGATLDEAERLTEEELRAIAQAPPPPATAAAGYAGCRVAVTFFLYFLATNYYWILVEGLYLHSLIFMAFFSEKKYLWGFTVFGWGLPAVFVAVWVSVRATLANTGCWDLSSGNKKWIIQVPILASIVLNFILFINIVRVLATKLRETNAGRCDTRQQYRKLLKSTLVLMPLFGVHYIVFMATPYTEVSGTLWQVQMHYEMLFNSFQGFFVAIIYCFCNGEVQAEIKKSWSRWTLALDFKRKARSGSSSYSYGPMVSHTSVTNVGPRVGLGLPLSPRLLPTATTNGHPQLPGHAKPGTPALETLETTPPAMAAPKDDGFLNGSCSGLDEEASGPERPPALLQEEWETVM
method: cell-based or functional assay
Answer with a number only, understood to be in nM.

stdin: Report IC50, inhibition of PTHrP(1-34)-induced cAMP accumulation for XPA.85.329 (antibody, V domains shown, IgG; also called Ab329; XPA.329) VH: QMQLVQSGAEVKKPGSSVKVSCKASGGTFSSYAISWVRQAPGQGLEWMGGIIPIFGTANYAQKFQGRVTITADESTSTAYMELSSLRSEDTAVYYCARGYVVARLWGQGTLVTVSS VL: DIVMTQTPLSLSVTPGQPASISCKSSQSLLHIDGLTYLYWYLQKPGQPPQLLIYEVSHRFSGVSDKFSGSGSGTDFTLTISRVEAEDVGVYYCMQSLHLPITFGQGTRLEIK please.
stdout: 6.54

stdin: Report IC50, inhibition of PTHrP(1-34)-induced cAMP accumulation for XPA.85.343 (antibody, V domains shown, Light-chain-shuffled variant of XPA.85.012) VH: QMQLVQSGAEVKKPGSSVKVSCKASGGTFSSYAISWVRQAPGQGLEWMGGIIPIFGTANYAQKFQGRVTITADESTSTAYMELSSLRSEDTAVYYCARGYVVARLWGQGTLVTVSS VL: DVVMTQTPLSLSVTPGQPASISCKSSQSLLHIDGRTYLYWYLQKAGQPPQLLIYEVSNRFSGVPDRFSGSGSGTDFTLKISRVEAEDVGVYYCMQSIHFPLTFGGGTKLEIK please.
stdout: 17.8

stdin: Report IC50, inhibition of PTHrP(1-34)-induced cAMP accumulation for XPA.85.330 (antibody, V domains shown, IgG; also called Ab330) VH: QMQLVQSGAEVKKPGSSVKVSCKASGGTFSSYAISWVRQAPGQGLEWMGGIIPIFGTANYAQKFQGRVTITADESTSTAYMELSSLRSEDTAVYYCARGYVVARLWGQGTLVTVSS VL: DIVMTQTPLSLSVTPGQPASISCKSSQSLLHIDGNTYLYWYLQRPGQPPQLLIYEISNRFSGVPDRFSGSGSGTDFTLKISRVEAEDVGVYYCMQSLHFPITFGQGTRLEIK please.
stdout: 8.23

stdin: Report IC50, inhibition of PTHrP(1-34)-induced cAMP accumulation for XPA.85.332 (antibody, V domains shown, Light-chain-shuffled variant of XPA.85.012) VH: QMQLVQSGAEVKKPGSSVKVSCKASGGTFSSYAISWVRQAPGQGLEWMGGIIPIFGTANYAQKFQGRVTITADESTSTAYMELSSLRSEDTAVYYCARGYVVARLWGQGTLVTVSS VL: ETTLTQSPAFMSASVGDRVTITCQASQDINNFLNWYQQKPGKAPKFLIYDASNLEKGVPSKFSGRGSGTEFTLTISSLQPEDIATYYCQQYRDFPLTFGQGTRLEIK please.
stdout: 5.03

stdin: Report IC50, inhibition of PTHrP(1-34)-induced cAMP accumulation for XPA.85.333 (antibody, V domains shown, Light-chain-shuffled variant of XPA.85.012) VH: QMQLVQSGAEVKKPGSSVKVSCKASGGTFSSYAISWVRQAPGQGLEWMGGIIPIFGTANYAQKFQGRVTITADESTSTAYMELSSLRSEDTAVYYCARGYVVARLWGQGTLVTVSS VL: DVVMTQTPLSLSVTPGQPASISCKSSQSLLHIDGKAYLYWYLQKPGQSPHLLIREVSTRFSGVSDRFTGSGSGTDFTLEISRVEAEDVGVYYCMQGLHLPPTFGQGTKVEIK please.
stdout: 5.61
